So I've got a bunch of binders here, and I need their IC50 values.
# TESTED SYSTEM: T1, Ab-12, anti-PD-L1xCD28 non-masked antibody in Vh format
# T1 construct: also called PDL1xCD28 non-masked (Vh)
# METHOD DESCRIPTION: competition ELISA: peptide titrated against 5 nM Ab-12; binding of Ab-12 to captured biotinylated CD28 antigen is read
Ends that are not written are not given here.
Give the value, in units of nM, as a plain number.

Documented IC50 of MDWCPRDMWDECFA (cysteine pairing not given here; also: biotinylated, site not given here, Synthetic biotinylated peptide loaded on streptavidin biosensors) [Peptide-42] : 440

The recorded IC50 for entry MDWCPRYLWHVCFA (cysteine pairing not given here; also: biotinylated, site not given here, Synthetic biotinylated peptide loaded on streptavidin biosensors) [Peptide-48] equals 790

Reported IC50 of MDWCPRSLWHECFA (cysteine pairing not given here; also: biotinylated, site not given here, Synthetic biotinylated peptide loaded on streptavidin biosensors) [Peptide-47] : 450
